System: nitric oxide (NO) production in RAW 264.7 cells
runDescription: Nitric oxide (NO) production inhibitory assay, LPS-stimulated RAW 264.7 cells, Griess reagent
Type: cell-based
setupConditions: LPS 1 µg/mL, 24 h; read-out: NO Production Inhibition IC50
metric: pIC50
# log scale: pIC50 equals minus log10 of the concentration in mol/L

Q: Entry CCCC1C2=C(CCC3C(=O)OC(=O)C3=CC1CC)C(=O)OC2=O (stereo not shown) [Compound 5, curvulariahawadride] has what pIC50?
Result: 4.89

---

Tested on: nitric oxide (NO) production in RAW 264.7 cells
runDescription: Nitric oxide (NO) production inhibitory assay, LPS-stimulated RAW 264.7 cells, Griess reagent
Assay type: cell-based
setupConditions: Mus musculus, RAW264.7, 24 h, LPS 1 µg/mL, 24 h; read-out: NO Production Inhibition IC50
Protocol: This assay was performed as previously described. […] After 24 h, 100 µL of Griess reagent was added to the samples for 10 min. […] Additionally, the data are presented as the IC50, which was calculated with GraphPad Prism 6.0 software.
metric: pIC50
# log scale: pIC50 equals minus log10 of the concentration in mol/L

Q: Entry CCCC1C2=C(CCC3C(=O)OC(=O)C3=CC1CC)C(=O)OC2=O (stereo not shown) [Compound 5, curvulariahawadride] has what pIC50?
Result: 4.89

---

runDescription: Cytotoxicity assay against leukemic K562 cells, MTT
setupConditions: human, K562 leukemic cells
Please provide measured viability at 24 h, 25 µg/mL for the entries that follow.
Dear colleague, please return just the value in %, with no unit written.

Q: Entry CC[C@H](C)[C@@H](OC(C)=O)[C@@H](C)C1=CC(=O)C2=C(O[C@]3(C)CC[C@H]4O[C@@H](C(C)(C)O)CC[C@]4(C)[C@H]3[C@@H]2O)C1=O has what viability at 24 h, 25 µg/mL?
Result: 21

Q: What about this molecule? CC[C@H](C)[C@@H](OC(C)=O)[C@@H](C)C1=CC(=O)C2=C(O[C@]3(C)CC[C@H]4O[C@@H](C(C)(C)O)CC[C@]4(C)C3=C2)C1=O [Compound 4, anhydrocochlioquinone A]
Result: 12.9

---

runDescription: Cytotoxicity assay against lung cancer A549 cells, MTT
setupConditions: human, A549 lung cancer cells
metric: viability at 24 h, 50 µg/mL (%)
Dear colleague, please return just the value in %, with no unit written.

Q: Entry CC[C@H](C)[C@@H](OC(C)=O)[C@@H](C)C1=CC(=O)C2=C(O[C@]3(C)CC[C@H]4O[C@@H](C(C)(C)O)CC[C@]4(C)C3=C2)C1=O [Compound 4, anhydrocochlioquinone A] has what viability at 24 h, 50 µg/mL?
Result: 9.35

Q: What about this compound? CC[C@H](C)[C@@H](OC(C)=O)[C@@H](C)C1=CC(=O)C2=C(O[C@]3(C)CC[C@H]4O[C@@H](C(C)(C)O)CC[C@]4(C)[C@H]3[C@@H]2O)C1=O
Result: 14.8

---

Please provide measured viability at 24 h, 50 µg/mL for the entries that follow.
runDescription: Cytotoxicity assay against leukemic K562 cells, MTT
setupConditions: human, K562 leukemic cells
Dear colleague, please return just the value in %, with no unit written.

Q: Entry CC[C@H](C)[C@@H](OC(C)=O)[C@@H](C)C1=CC(=O)C2=C(O[C@]3(C)CC[C@H]4O[C@@H](C(C)(C)O)CC[C@]4(C)C3=C2)C1=O [Compound 4, anhydrocochlioquinone A] has what viability at 24 h, 50 µg/mL?
Result: 11.3

Q: What about this molecule? CC[C@H](C)[C@@H](OC(C)=O)[C@@H](C)C1=CC(=O)C2=C(O[C@]3(C)CC[C@H]4O[C@@H](C(C)(C)O)CC[C@]4(C)[C@H]3[C@@H]2O)C1=O
Result: 13.3

The measured values listed here are drawn from paper PMC8224630.
